tested-target: Taq polymerase (Thermus aquaticus, UniProt P19821)
Sequence (P19821 whole entry): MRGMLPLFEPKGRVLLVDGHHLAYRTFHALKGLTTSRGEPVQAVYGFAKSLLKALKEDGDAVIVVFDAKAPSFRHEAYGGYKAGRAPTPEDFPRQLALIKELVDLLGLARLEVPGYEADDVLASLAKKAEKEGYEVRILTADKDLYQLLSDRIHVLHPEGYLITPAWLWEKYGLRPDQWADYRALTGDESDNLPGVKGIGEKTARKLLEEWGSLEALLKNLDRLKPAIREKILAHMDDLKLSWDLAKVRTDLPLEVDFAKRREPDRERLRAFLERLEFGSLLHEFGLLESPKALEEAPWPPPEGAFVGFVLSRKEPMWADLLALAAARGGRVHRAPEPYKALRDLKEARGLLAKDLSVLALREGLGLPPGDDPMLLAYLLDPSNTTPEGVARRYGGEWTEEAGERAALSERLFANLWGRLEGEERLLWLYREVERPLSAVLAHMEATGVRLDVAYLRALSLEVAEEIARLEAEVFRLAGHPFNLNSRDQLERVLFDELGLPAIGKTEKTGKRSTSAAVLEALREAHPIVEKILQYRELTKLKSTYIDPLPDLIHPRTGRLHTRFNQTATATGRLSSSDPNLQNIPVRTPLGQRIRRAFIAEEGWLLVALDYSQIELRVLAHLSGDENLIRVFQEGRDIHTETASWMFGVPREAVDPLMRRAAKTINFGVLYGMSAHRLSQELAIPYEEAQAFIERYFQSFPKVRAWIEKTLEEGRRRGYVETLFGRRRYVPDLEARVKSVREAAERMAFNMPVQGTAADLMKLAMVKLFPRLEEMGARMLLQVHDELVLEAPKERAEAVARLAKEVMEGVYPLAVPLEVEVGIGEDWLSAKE
measured-metric: pKd
Answers are plain numbers, as −log10 of the molar value.

In: Specify reported pKd for the molecule shown: O=C(O)C1=CC(=C(c2ccc(O)c(C(=O)O)c2)c2ccc(O)c(C(=O)O)c2)C=CC1=O [ATA, aurintricarboxylic acid]
Out: 4.09

---

tested-target: DNase I (Bos taurus, UniProt P00639)
Sequence (P00639 23-282): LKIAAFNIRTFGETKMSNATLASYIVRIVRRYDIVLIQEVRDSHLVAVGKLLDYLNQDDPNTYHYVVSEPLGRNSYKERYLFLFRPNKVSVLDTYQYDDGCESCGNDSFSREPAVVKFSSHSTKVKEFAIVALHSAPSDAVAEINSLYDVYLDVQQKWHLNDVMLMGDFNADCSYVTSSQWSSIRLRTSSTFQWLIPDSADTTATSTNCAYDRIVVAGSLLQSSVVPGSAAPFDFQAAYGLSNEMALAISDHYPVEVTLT
measured-metric: Kd

In: Determine its reported Kd: O=C(O)C1=CC(=C(c2ccc(O)c(C(=O)O)c2)c2ccc(O)c(C(=O)O)c2)C=CC1=O
Out: 9.02 µM
